measured_metric: melting point

Q) // returns reported melting point for input `CCOC(=O)CCCOc1ccc2nc3c(cc2c1)CC(=O)N3`
A) 181 °C

Respectfully, I request melting point for each entry included below.
1. CCCCCCCCCCc1c(C(=O)OCC)sc2c1sc1c3sc(C(=O)OCC)c(CCCCCCCCCC)c3sc21
2. CCOC(=O)COC1CCC2C3CCC4N=CCCC4(C)C3CCC12C (stereo unspecified)
3. Cc1ccc(C(=O)/C=C/C(=O)O)o1
4. CCN1CCC(O)(c2cc(F)cc(Cl)c2)C1 (stereo unspecified)

A)
1. 130 to 132 °C
2. 170 to 172 °C
3. 159 to 162 °C
4. 117 to 118 °C
